Assay: Phototoxicity against human NCTC-2544 cells exposed to irradiation with 3.75 J/cm'2 UVA light prior to 72 hrs drug exposure by MTT assay
Assay type: cell-based
Conditions: NCTC-2544, light or radiation study
pIC50: −log10 of the molar value.
observation_type: pIC50

Can you share its pIC50? I mean this compound: `CCOC(=O)c1c2c(c(C)n1Cc1ccc(OC)cc1)-c1oc(=O)c(C(=O)OC)cc1CC2`
< 4.70

Which value of pIC50 has been reported for `CCOC(=O)c1cc2c(oc1=O)-c1cn(Cc3ccccc3)cc1CC2` in the records?
< 4.70

// pIC50 lookup, key: `O=c1ccc2c(o1)-c1cn(Cc3ccccc3)cc1CC2`
< 4.70

Which measured pIC50 value corresponds to `CCOC(=O)c1c2c(c(C)n1Cc1ccc(C)cc1)-c1oc(=O)c(C(=O)OC)cc1CC2` ?
< 4.70

Returns the measured pIC50 for the input compound. Input: `Cn1cc2c(c1)-c1oc(=O)c(C(=O)O)cc1CC2`
< 4.70

Quick check: pIC50 of `CCOC(=O)c1[nH]c(C)c2c1CCc1cc(C(=O)OCC)c(=O)oc1-2` ?
< 4.70

I would be grateful if you could share the reported pIC50 for `CCOC(=O)c1cc2ccc3c(C(=O)OCC)[nH]c(C)c3c2oc1=O` .
< 4.70

====

Record form. Attribute: IC50. Fill in for each entry.
Test system: K562
Assay: Phototoxicity against human K562 cells exposed to irradiation with 2.5 J/cm'2 UVA light prior to 72 hrs drug exposure by MTT assay
Assay type: functional, cell-based
Conditions: K562, light or radiation study

Reported IC50 for K562, given `CCOC(=O)c1[nH]c(C)c2c1CCc1cc(C(=O)OCC)c(=O)oc1-2` ?
> 20 µM

Give K562 IC50 for `CCOC(=O)c1cc2c(oc1=O)-c1c(cn(Cc3ccccc3)c1C)CC2`
> 20 µM

// map `CCOC(=O)c1c2c(c(C)n1Cc1ccccc1)-c1oc(=O)c(C(=O)OC)cc1CC2` to recorded IC50 (system: K562)
6.1 µM

Form entry - test system: K562; read-out: IC50; compound: `CCOC(=O)c1cc2c(oc1=O)-c1cn(Cc3ccccc3)cc1CC2`
> 20 µM

# returns recorded IC50 (system: K562) for `CCOC(=O)c1cc2c(oc1=O)-c1c(c(C(=O)OCC)n(Cc3ccccc3)c1C)CC2`
7.5 µM

Give IC50 (K562) of the following compound: `CCOC(=O)c1c2c(c(C)n1Cc1ccc(OC)cc1)-c1oc(=O)c(C(=O)OC)cc1CC2`
> 20 µM

Provide the documented IC50 with K562 as the system for `CCOC(=O)c1c2c(c(C)n1Cc1ccc(C)cc1)-c1oc(=O)c(C(=O)OC)cc1CC2`
> 20 µM

Tell me reported IC50 for `CCOC(=O)c1cc2c(oc1=O)-c1c(c(C(=O)OCC)n(Cc3ccc(OC)cc3)c1C)CC2` , tested with K562.
> 20 µM

Request: IC50, test system K562, entry `CCOC(=O)c1cc2c(oc1=O)-c1c(c(C(=O)OCC)n(Cc3ccc(C)cc3)c1C)CC2`
13.5 µM

Lab note: need IC50 with K562 for entry `O=c1ccc2c(o1)-c1cn(Cc3ccccc3)cc1CC2` , please look it up.
> 20 µM

====

Experiment: Phototoxicity against human NCTC-2544 cells exposed to irradiation with 3.75 J/cm'2 UVA light prior to 72 hrs drug exposure by MTT assay
Assay type: cell-based
Settings: NCTC-2544, light or radiation study
observation_type: IC50

Item `CCOC(=O)c1cc2c(oc1=O)-c1c(c(C(=O)OCC)n(Cc3ccc(C)cc3)c1C)CC2` has what recorded IC50?
17 µM

Entry under review: `CCOC(=O)c1c2c(c(C)n1Cc1ccccc1)-c1oc(=O)c(C(=O)OC)cc1CC2` . Reported IC50?
10 µM

Field request: IC50 | item: `CCOC(=O)c1cc2c(oc1=O)-c1c(cn(Cc3ccccc3)c1C)CC2`
> 20 µM

Item `CCOC(=O)c1cc2c(oc1=O)-c1cn(-c3ccccc3)cc1CC2` has what recorded IC50?
> 20 µM

For the compound shown here, `CCOC(=O)c1cc2c(oc1=O)-c1cn(C)cc1CC2` , give the reported IC50.
> 20 µM

====

Would you kindly list pIC50 for each of these compounds?
Experiment: Phototoxicity against human NCTC-2544 cells exposed to irradiation with 2.5 J/cm'2 UVA light prior to 72 hrs drug exposure by MTT assay
Format: cell-based
Conditions: NCTC-2544, light or radiation study
pIC50: −log10 of the molar value.

Item `CCOC(=O)c1cc2c(oc1=O)-c1c(c(C(=O)OCC)n(Cc3ccc(OC)cc3)c1C)CC2` has what recorded pIC50?
< 4.70

So what does the record say about pIC50 for `CCOC(=O)c1cc2c(oc1=O)-c1c(c(C(=O)OCC)n(C)c1C)CC2` ?
< 4.70

Report pIC50 for `Cn1cc2c(c1)-c1oc(=O)ccc1CC2` please.
< 4.70

Look up pIC50 for this compound: `CCOC(=O)c1cc2c(oc1=O)-c1c(cn(Cc3ccccc3)c1C)CC2`
< 4.70

Please report the recorded pIC50 for `CCOC(=O)c1c2c(c(C)n1Cc1ccc(OC)cc1)-c1oc(=O)c(C(=O)OC)cc1CC2` .
< 4.70

// lookup pIC50 for `CCOC(=O)c1cc2c(oc1=O)-c1c(c(C(=O)OCC)n(Cc3ccc(C)cc3)c1C)CC2`
< 4.70

Can you share its pIC50? I mean this compound: `CCOC(=O)c1cc2ccc3c(C(=O)OCC)[nH]c(C)c3c2oc1=O`
< 4.70

// lookup pIC50 for `COc1c2occc2cc2ccc(=O)oc12`
5.26

Sample `CCOC(=O)c1cc2c(oc1=O)-c1cn(C)cc1CC2` — what was its pIC50?
< 4.70

Quick one: pIC50 for `O=c1ccc2c(o1)-c1cn(Cc3ccccc3)cc1CC2` ?
< 4.70

Which pIC50 is listed for `CCOC(=O)c1c2c(c(C)n1Cc1ccc(C)cc1)-c1oc(=O)c(C(=O)OC)cc1CC2` ?
< 4.70

Requested field: pIC50. Item: `CCOC(=O)c1cc2c(oc1=O)-c1c(c(C(=O)OCC)n(Cc3ccccc3)c1C)CC2`
4.84

May I ask what pIC50 has been recorded for `CCOC(=O)c1cc2c(oc1=O)-c1cn(Cc3ccccc3)cc1CC2` ?
< 4.70

Look up pIC50 for this compound: `O=c1ccc2ccc3occc3c2o1`
5.38

====

System: LoVo
Assay: Phototoxicity against human LoVo cells exposed to irradiation with 2.5 J/cm'2 UVA light prior to 72 hrs drug exposure by MTT assay
Assay type: functional, cell-based
Conditions: light or radiation study
pIC50: −log10 of the molar value.
observation_type: pIC50

Can you share its pIC50? I mean this compound: `CCOC(=O)c1c2c(c(C)n1Cc1ccc(C)cc1)-c1oc(=O)c(C(=O)OC)cc1CC2`
< 4.70

Can you look up the measured pIC50 of `CCOC(=O)c1cc2c(oc1=O)-c1cn(-c3ccccc3)cc1CC2` for me?
< 4.70

Given the compound `CCOC(=O)c1cc2c(oc1=O)-c1c(c(C(=O)OCC)n(Cc3ccc(C)cc3)c1C)CC2` , what is its reported pIC50?
< 4.70

Requested read-out: pIC50. Entry: `CCOC(=O)c1c2c(c(C)n1Cc1ccc(OC)cc1)-c1oc(=O)c(C(=O)OC)cc1CC2`
< 4.70

Item `Cn1cc2c(c1)-c1oc(=O)c(C(=O)O)cc1CC2` has what recorded pIC50?
< 4.70

Any idea what its pIC50 is? The compound is `CCOC(=O)c1[nH]c(C)c2c1CCc1cc(C(=O)OCC)c(=O)oc1-2`
< 4.70

pIC50 for `CCOC(=O)c1c2c(c(C)n1Cc1ccccc1)-c1oc(=O)c(C(=O)OC)cc1CC2` ?
5.11

Consider the compound `CCOC(=O)c1cc2ccc3c(C(=O)OCC)n(C)c(C)c3c2oc1=O` and give its measured pIC50.
4.79

Which pIC50 reading was recorded for the compound `CCOC(=O)c1cc2c(oc1=O)-c1c(c(C(=O)OCC)n(Cc3ccc(OC)cc3)c1C)CC2` ?
< 4.70

Can you share its pIC50? I mean this compound: `CCOC(=O)c1cc2c(oc1=O)-c1cn(Cc3ccccc3)cc1CC2`
< 4.70

====

Experiment: Phototoxicity against human NCTC-2544 cells exposed to irradiation with 2.5 J/cm'2 UVA light prior to 72 hrs drug exposure by MTT assay
Format: cell-based
Conditions: NCTC-2544, light or radiation study
Please respond with reported IC50 for every item in the list.

Any idea what its IC50 is? The molecule is `CCOC(=O)c1cc2ccc3c(C(=O)OCC)n(C)c(C)c3c2oc1=O`
> 20 µM

What value of IC50 has been reported for the following molecule? `Cn1cc2c(c1)-c1oc(=O)c(C(=O)O)cc1CC2`
> 20 µM

So what's the measured IC50 for this one? `CCOC(=O)c1c2c(c(C)n1Cc1ccccc1)-c1oc(=O)c(C(=O)OC)cc1CC2`
14 µM

Consider the molecule shown here: `CCOC(=O)c1cc2c(oc1=O)-c1cn(-c3ccccc3)cc1CC2` What is its recorded IC50?
> 20 µM

What measured IC50 goes with `CCOC(=O)c1[nH]c(C)c2c1CCc1cc(C(=O)OCC)c(=O)oc1-2` ?
> 20 µM
